- target.of.assay: P2X7 (Homo sapiens, UniProt Q99572)
- Sequence (Q99572 whole entry): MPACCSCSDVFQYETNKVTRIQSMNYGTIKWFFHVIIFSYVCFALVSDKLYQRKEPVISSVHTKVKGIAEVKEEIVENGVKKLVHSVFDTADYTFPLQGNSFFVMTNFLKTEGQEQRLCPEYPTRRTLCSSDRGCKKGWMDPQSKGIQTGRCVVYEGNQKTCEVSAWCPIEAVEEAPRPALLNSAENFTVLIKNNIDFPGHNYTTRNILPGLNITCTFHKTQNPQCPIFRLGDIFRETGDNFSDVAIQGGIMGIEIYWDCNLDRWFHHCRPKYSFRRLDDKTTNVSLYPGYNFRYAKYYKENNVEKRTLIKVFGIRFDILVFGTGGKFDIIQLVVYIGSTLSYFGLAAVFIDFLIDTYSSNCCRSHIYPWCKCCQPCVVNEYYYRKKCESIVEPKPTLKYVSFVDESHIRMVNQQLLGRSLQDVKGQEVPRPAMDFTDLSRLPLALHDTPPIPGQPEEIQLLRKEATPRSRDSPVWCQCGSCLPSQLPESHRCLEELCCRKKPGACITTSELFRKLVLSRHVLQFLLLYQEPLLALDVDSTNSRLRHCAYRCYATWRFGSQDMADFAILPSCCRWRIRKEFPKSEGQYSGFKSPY
- test.protocol: High Throughput P2X7 Calcium Mobilization Assay (Example 4A), antagonist activity
- condition: SH-SY5Y cells, 50% decrease in fluorescence response of cells exposed to 80 μM BzATP
reported.property: IC50

Example entries begin here.
compound="CC(C)CC(CNC(=O)c1cccn2nc(C(=O)N3CCC[C@@H](N)C3)cc12)c1ccccc1 (some centres unmarked)" reported_property=IC50 endpoint_result="≤ 2 µM"
compound="O=C(O)CC(c1ccccc1)c1cc2c(C(=O)NCC34CC5CC(CC(C5)C3)C4)cccn2n1 (centres unmarked)" reported_property=IC50 endpoint_result="≤ 2 µM"

I need IC50 for every entry listed below, if you could help.
1. CN(Cc1cccc(F)c1)Cc1cc2c(C(=O)NCC34CC5CC(CC(C5)C3)C4)cccn2n1
2. CC(CC(=O)O)c1cc2c(C(=O)NCC34CC5CC(CC(C5)C3)C4)cccn2n1 (centres unmarked)
3. CC(C)CC(CNC(=O)c1cccn2nc(C(=O)N3CCOCC3)cc12)c1ccc(Cl)cc1 (centres unmarked)
4. CN(CC(F)(F)F)C(=O)Cc1cc2c(C(=O)NCC34CC5CC(CC(C5)C3)C4)cccn2n1
5. N[C@@H]1CCN(C(=O)c2cc3c(C(=O)NCC(CC4CCCCC4)c4ccccc4)cccn3n2)C1 (some centres unmarked)

Ans:
≤ 2 µM
≤ 2 µM
≤ 2 µM
≤ 2 µM
≤ 2 µM

Q: Tell us which IC50 value is on record for O=C(NCC1(c2ccc(Cl)cc2)CCCCC1)c1cccn2nc(C(Cc3ccccc3)C(=O)O)cc12 (centres unmarked)
Ans: ≤ 2 µM
